Provenance of the data: patent US20260028354A1

# ASSAYED_TARGET: ER in MCF-7 cells (Homo sapiens (Human))
# Sequence (P03372 whole entry): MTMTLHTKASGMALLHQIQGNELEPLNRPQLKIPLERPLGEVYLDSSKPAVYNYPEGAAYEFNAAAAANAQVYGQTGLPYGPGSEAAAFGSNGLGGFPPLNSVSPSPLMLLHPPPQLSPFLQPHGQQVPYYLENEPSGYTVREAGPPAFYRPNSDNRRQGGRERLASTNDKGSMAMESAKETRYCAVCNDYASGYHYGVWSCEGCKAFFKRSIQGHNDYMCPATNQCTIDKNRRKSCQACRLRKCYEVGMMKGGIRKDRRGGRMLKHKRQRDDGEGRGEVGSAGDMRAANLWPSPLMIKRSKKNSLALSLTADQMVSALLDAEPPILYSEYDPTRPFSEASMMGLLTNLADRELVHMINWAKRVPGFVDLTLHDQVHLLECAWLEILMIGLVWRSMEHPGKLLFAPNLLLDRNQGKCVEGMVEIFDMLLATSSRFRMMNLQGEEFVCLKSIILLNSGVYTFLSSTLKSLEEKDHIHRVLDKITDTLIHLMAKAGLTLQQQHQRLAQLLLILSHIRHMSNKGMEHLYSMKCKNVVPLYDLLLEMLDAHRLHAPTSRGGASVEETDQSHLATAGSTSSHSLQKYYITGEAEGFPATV
# MEASUREMENT_DESCRIPTION: In-cell Western (ICW) ER degradation assay in MCF-7 cells
# Assay type: cell-based
# MEASUREMENT_PARAMETERS: MCF7, MCF-7, maximal ER degradation, 16 hrs treatment; read-out: MCF7 Dmax
Would you mind telling me the reported Dmax of each entry?

A selection of reference data follows.
COMPOUND	Dmax
COc1c([C@@H]2c3ccc(O)cc3CC[C@@H]2c2ccccc2)ccc(N2CCC3(CC2)CC(CN2CCN4c5ccc6c(c5OC[C@H]4C2)CN([C@H]2CCC(=O)NC2=O)C6=O)C3)c1F [Compound A196]	> 75%
COc1cc(N2CCC(CN3CCC(c4ccc(N[C@@H]5CCC(=O)NC5=O)cc4F)CC3)CC2)ccc1[C@@H]1c2ccc(O)cc2CC[C@@H]1c1ccccc1 (single isomer, unassigned) [Compound A85]	25 to 50%
O=C1CC[C@H](N2Cc3cc4c(cc3C2=O)OC[C@@H]2CN(CC3CC5(CCN(c6ccc([C@@H]7c8ccc(O)cc8CC[C@@H]7c7ccccc7)cn6)CC5)C3)CCN42)C(=O)N1 (single isomer, unassigned) [Compound A121]	> 75%

Attention now turns to another entry.
Prompt line: Give Dmax; test system ER in MCF-7 cells (Homo sapiens (Human)); compound COc1cc(N2CCC3(CC2)CC(CN2CCN4c5ccc6c(c5OC[C@H]4C2)CN([C@H]2CCC(=O)NC2=O)C6=O)C3)ccc1[C@H]1c2ccc(O)cc2CC[C@H]1c1ccccc1 (single isomer, unassigned) [Compound A9]
Response line: 50 to 75%
